method description: CEM cell growth inhibition (XTT, noninfected cells)
Type: cell-based
condition info: human, CEM Cell Assay, drug alone, read-out: IC50 (Inhibitory Concentration where drug alone inhibits cell growth)
Measured CC50, listed per entry.
Numbers only; they are read as µM.

Supply CC50 value. Item: CC(C)C[C@H](NC(=O)c1ccc(F)cc1SSc1cc(F)ccc1C(=O)N[C@@H](CC(C)C)C(=O)O)C(=O)O [Example 51]
64

# return recorded CC50 for entry NS(=O)(=O)c1ccccc1NC(=O)c1ccccc1SSc1ccccc1C(=O)Nc1ccccc1S(N)(=O)=O [Example 102]
68

Give CC50 for the following compound: NC(=O)c1cc(NC(=O)C(F)(F)F)ccc1SSc1ccc(NC(=O)C(F)(F)F)cc1C(N)=O [Example 74]
67

Entry Cc1ccc(C(=O)N[C@@H](CC(C)C)C(=O)O)c(SSc2cc(C)ccc2C(=O)N[C@@H](CC(C)C)C(=O)O)c1 [Example 57] needs its CC50 filled in; supply it.
71

* * *

method description: H9 cell cytotoxicity (XTT assay, uninfected cells)
Assay type: cell-based
condition info: human, drug alone, read-out: IC50 (Inhibitory Concentration where drug alone inhibits cell growth)
Listed molecules paired with reported CC50 at 168 h

Tell me its CC50 at 168 h given CC(=O)Nc1ccc(S)c(C(N)=O)c1 [Example 10, 5-Acetylamino-2-thiobenzamide] as the entry.
> 100 µM

Give CC50 at 168 h for the following molecule: NS(=O)(=O)c1ccc(NC(=O)c2ccc(SSc3ccc(C(=O)Nc4ccc(S(N)(=O)=O)cc4)cc3)cc2)cc1 [Reference Compound, 4,4dithiobis-4sulfamoyl benzanilide, reference compound]
> 100 µM

Now take the following molecule into account.
Using the record for CC(=O)Nc1ccc(SSc2ccc(NC(C)=O)cc2C(N)=O)c(C(N)=O)c1 [Example 9, 2,2'-Dithiobis(5-acetylamino)benzamide] , state its measured CC50 at 168 h.
> 100 µM

* * *

method description: CEM cell growth inhibition (XTT, noninfected cells)
Format: cell-based
condition info: human, CEM Cell Assay, drug alone, read-out: IC50 (Inhibitory Concentration where drug alone inhibits cell growth)
Reported CC50 by item:

Supply measured CC50 of `CC(=O)N[C@@H](CSSc1ccccc1C(=O)Nc1ccc(S(N)(=O)=O)cc1)C(=O)O` in your reply.
> 100 µM

Further cases:
Note down CC50 recorded for NS(=O)(=O)c1ccc(NC(=O)c2ccc(SSc3ccc(C(=O)Nc4ccc(S(N)(=O)=O)cc4)cc3)cc2)cc1 [Reference Compound, 4,4dithiobis-4sulfamoyl benzanilide, reference compound]
> 100 µM

Give the value of CC50 reported for the following: `COC(=O)[C@H](N)C(C)(C)SSc1ccccc1C(=O)Nc1ccc(S(N)(=O)=O)cc1`
> 100 µM
